Target: T1, human DR3 (TNFRSF25) expressed on cells (human, UniProt Q93038 25-417)
T1 sequence: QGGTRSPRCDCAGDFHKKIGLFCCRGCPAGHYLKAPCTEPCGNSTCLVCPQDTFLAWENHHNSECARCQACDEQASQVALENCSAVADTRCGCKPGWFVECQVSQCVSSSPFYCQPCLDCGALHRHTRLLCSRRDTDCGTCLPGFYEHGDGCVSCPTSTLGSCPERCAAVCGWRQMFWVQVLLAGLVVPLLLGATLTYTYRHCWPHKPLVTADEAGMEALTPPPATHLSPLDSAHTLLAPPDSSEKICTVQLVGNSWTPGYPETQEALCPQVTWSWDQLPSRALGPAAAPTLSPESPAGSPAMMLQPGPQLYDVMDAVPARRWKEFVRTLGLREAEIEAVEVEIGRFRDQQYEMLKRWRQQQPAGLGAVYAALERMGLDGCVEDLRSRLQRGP
Assay: cell-based or functional assay
MEASURE: Signal (FLU)
Only the number, expressed in FLU, is required.

Item: VHg6/VLg13 (antibody, human IgG1, V domains shown, human IgG1) VH: QVQLQQSGGGLVQPGGSLRLSCAASGFTFSSYAMSWVRQAPGKGLEWVATISDGDSYSYFPDSVKDRFTISRDNARNSLYLQMNSLRAEDTAVYYCARDRIYGSVQYYAMDYWGRGTLVTVSS VL: DIQMTQSPSSLSASVGDRVTITCRASESVEFSGTSLMQWYQQKPGKAPKLLIYAASNVESGVPSRFSGSGSGTDFTFTISSLQPEDIATYYCQQSRKLPYTFGQGTKLEIK | Signal (FLU): 2.75e+06

Item: VHg1/VLg4 (antibody, human IgG1, V domains shown, human IgG1) VH: QVQLVQSGGGLVQPGGSLRLSCAASGFTFSSYAMSWVRQAPGKGLEWVSTISDGDSYSYFPDSVKDRFTISRDNSKNTLYLQMNSLRAEDTSVYYCARDRIYGSVQYYAMDYWGQGTLVTVSS VL: DVVMTQSPDSLAVSLGERATISCRASESVEFSGTSLMQWYQQKPRQPLKLLIYAASNVESGVPDRFSGSGSGTDFTLTISSLQAEDVAVYYCQQSRKLPYTFGQGTRLEIK | Signal (FLU): 2.09e+06

Item: VHg10/VLg1 (antibody, human IgG1, V domains shown) VH: EVQLVESGGGLVQPGGSLRLSCAASGFTFSSYAMSWVRQAPGKGLEWVSTISDGDSYSYFPDSVKDRFTISRDNSKNTLYLQMNSLRAEDTAVYYCARDRIYGSVQYYAMDYWGQGTLVTVSS VL: DVVMTQSPDSLAVSLGERATINCRASESVEFSGTSLMQWYQQKPGQPPKLLIYAASNVESGVPDRFSGSGSGTDFTLTISSLQAEDVVVYYCQQSRKLPYTFGGGTKVEIK | Signal (FLU): 2.54e+06

Item: VHg5/VLg4 (antibody, human IgG1, V domains shown) VH: QVQLQQSGGGLVQAGGSLRLSCAASGFTFTSYAMSWVRQAPGKGLEWVATISDGDSYSYFPDSVKDRFIISRDNAKNSLFLQMNSLRAEDTAVYYCARDRIYGSVQYYAMDYWGRGTLVTVSS VL: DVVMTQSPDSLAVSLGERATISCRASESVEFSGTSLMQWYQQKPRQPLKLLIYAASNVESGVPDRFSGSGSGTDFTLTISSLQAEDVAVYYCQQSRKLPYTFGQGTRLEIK | Signal (FLU): 1.44e+06

Item: VHg5/VLg2 (antibody, human IgG1, V domains shown, human IgG1) VH: QVQLQQSGGGLVQAGGSLRLSCAASGFTFTSYAMSWVRQAPGKGLEWVATISDGDSYSYFPDSVKDRFIISRDNAKNSLFLQMNSLRAEDTAVYYCARDRIYGSVQYYAMDYWGRGTLVTVSS VL: DIQLTQSPSSLSASVGDRVTITCRASESVEFSGTSLMQWYQQKAGLAPKLLIYAASNVESGVPSRFSGSGSGTDFTLTISSLQPEDFGTYYCQQSRKLPYTFGQGTRLEIK | Signal (FLU): 2.76e+06

Item: VHg2/VLg11 (antibody, human IgG1, V domains shown, human IgG1) VH: QMQLVQSGGGLVKPGGSLRLSCAASGFTFSSYAMSWIRQAPGKGLEWVSTISDGDSYSYFPDSVKDRFTISRDNAKNSLYLQMNSLRAEDTAVYYCTRDRIYGSVQYYAMDYWGRGTLVTVSS VL: DIVMTQSPDSLAVSLGERATINCRASESVEFSGTSLMQWYQQKPGQPPKLLIYAASNVESGVPDRFSGSGSGTDFTLTISSLQAEDVAVYYCQQSRKLPYTFGQGTKLEIK | Signal (FLU): 2.9e+06

Item: VHg1/VLg12 (antibody, human IgG1, V domains shown, human IgG1) VH: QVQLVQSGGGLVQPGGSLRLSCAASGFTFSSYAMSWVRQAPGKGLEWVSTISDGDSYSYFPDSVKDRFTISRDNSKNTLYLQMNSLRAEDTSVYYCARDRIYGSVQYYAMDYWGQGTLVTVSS VL: EIVLTQSPATLSLSPGERATLSCRASESVEFSGTSLMQWYQQKPGQAPRLLIYAASNVESGIPARFSGSGSGTDFTLTISSLEPEDFAVYYCQQSRKLPYTFGQGTKLEIK | Signal (FLU): 2.76e+06

Item: VHg9/VLg13 (antibody, human IgG1, V domains shown) VH: EVQLVESGGGLVKPGGSLRLSCAASGFTFSSYAMSWVRQAPGKGLEWVSTISDGDSYSYFPDSVKDRFTISRDNAKNSLYLQMNSLRAEDTAVYYCARDRIYGSVQYYAMDYWGQGTLVTVSS VL: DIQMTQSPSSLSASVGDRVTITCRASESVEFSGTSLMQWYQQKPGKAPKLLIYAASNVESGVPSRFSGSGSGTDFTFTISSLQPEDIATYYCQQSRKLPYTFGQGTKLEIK | Signal (FLU): 3.33e+06

Item: VHg6/VLg6 (antibody, human IgG1, V domains shown) VH: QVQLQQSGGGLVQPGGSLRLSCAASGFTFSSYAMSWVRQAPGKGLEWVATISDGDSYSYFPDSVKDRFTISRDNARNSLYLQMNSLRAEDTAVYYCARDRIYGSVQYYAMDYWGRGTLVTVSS VL: DVVMTQSPPSLPVTPGEPASISCRASESVEFSGTSLMQWYLQKPGQSPQVLIYAASNVESGVPDRFSGSGSGTDFTLKISRVEAEDVGVYYCQQSRKLPYTFGQGTRLEIK | Signal (FLU): 1.96e+06

Item: VHg5/mVL (antibody, human IgG1, V domains shown) VH: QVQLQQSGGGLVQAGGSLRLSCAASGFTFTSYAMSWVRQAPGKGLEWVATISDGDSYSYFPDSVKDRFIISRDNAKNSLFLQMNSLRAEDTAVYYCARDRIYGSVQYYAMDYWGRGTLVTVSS VL: DIVLTQSPASLAVSLGQRATISCRASESVEFSGTSLMQWYQQRPGLPPKLLIYAASNVESGVPARFSGSGSGTDFSLNIHPVEEDDIAMYFCQQSRKLPYTFGGGTKLEIN | Signal (FLU): 2.69e+06
